Biological target: ΔF508-CFTR (Homo sapiens, UniProt P13569, DEL508-508)
Construct: host or cells: CFBE41o-, doxycycline-inducible
Sequence (P13569 with tags, fused parts or gaps DEL508-508): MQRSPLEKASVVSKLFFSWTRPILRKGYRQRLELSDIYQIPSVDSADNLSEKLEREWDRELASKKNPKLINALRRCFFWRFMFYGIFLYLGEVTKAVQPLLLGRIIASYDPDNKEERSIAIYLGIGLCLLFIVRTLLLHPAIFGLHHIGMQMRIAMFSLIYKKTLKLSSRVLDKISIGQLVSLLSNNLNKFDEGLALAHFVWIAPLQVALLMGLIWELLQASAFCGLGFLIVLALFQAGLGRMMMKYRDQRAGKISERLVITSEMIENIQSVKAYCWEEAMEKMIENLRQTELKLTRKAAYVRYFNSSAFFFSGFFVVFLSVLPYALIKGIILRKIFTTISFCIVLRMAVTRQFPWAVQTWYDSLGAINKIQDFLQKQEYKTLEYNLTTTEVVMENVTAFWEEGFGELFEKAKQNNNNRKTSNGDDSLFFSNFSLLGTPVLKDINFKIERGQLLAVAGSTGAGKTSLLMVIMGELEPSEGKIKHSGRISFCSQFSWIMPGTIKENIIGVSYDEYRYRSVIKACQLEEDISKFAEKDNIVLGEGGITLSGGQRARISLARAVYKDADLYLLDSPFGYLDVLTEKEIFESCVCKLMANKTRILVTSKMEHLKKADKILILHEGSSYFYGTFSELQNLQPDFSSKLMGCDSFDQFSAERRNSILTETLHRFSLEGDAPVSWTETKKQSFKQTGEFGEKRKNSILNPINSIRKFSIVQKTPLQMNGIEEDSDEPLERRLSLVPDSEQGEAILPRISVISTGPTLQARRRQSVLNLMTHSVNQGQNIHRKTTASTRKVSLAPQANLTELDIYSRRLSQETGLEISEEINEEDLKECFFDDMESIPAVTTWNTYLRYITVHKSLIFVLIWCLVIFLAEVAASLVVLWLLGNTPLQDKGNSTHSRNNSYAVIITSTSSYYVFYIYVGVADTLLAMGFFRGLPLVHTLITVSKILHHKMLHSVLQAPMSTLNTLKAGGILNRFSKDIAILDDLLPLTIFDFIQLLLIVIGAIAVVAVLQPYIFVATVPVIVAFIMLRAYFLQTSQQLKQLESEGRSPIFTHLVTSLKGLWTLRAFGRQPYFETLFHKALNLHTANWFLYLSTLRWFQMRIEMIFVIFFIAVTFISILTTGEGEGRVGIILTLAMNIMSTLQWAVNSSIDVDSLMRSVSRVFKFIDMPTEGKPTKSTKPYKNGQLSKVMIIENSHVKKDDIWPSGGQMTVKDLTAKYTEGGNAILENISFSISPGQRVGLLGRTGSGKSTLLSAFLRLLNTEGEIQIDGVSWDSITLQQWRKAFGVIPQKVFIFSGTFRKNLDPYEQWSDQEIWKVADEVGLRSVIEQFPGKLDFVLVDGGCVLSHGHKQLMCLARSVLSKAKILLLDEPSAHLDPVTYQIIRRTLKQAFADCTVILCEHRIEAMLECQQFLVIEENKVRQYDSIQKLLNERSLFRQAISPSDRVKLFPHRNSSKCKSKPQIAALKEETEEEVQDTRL
Assay: CFTR cell surface levels using HRP-tagged ΔF508-CFTR expressing CFBE cells, intrinsic corrector capacity
Format: cell-based
Settings: HRP-tagged ΔF508-CFTR CFBE41o- cells, compounds alone (intrinsic corrector capacity), 20 hours at 33° C.; positive control 3 μM corrector
Below, each entry is listed with its recorded % Activation.
Hi! Could you send only the number? It should be in %, unit omitted.

Examples with answers:
compound	assayed target	result units	% Activation
Cc1nn(-c2ccccc2)c2nc(C(=O)O)cc(-c3ccc(N4CC[C@H](C#N)C4)cc3)c12 [compound 155]	ΔF508-CFTR (Homo sapiens, UniProt P13569, DEL508-508)	%	203.65
Cc1nn(-c2ccccc2)c2nc(C(=O)O)cc(N3CCN(C(=O)N4CCOCC4)CC3)c12 [compound 322]	ΔF508-CFTR (Homo sapiens, UniProt P13569, DEL508-508)	%	12.25
CC(C)c1nn(-c2ccnc(N3CCCC3)c2)c2nc(C(=O)O)cc(-c3ccc(N4CCC(C#N)CC4)nc3)c12 [compound 369]	ΔF508-CFTR (Homo sapiens, UniProt P13569, DEL508-508)	%	251.6
Cc1nn(-c2ccccc2)c2nc(C(=O)O)cc(N3CCN(CC(=O)N(C)C)CC3)c12 [compound 323]	ΔF508-CFTR (Homo sapiens, UniProt P13569, DEL508-508)	%	8.143

Okay, next one:
Noted % Activation for Cc1nn(-c2ccccc2)c2nc(C(=O)O)cc(N3CCCC4(CC4)C3)c12 [compound 310] , tested on ΔF508-CFTR (Homo sapiens, UniProt P13569, DEL508-508): 88.73

###

Molecular target: ΔF508-CFTR (Homo sapiens, UniProt P13569, DEL508-508)
Construct: host or cells: CFBE41o-, doxycycline-inducible
Assay: CFTR cell surface levels using HRP-tagged ΔF508-CFTR expressing CFBE cells, intrinsic corrector capacity
Format: cell-based
Conditions: HRP-tagged ΔF508-CFTR CFBE41o- cells, compounds alone (intrinsic corrector capacity), 20 hours at 33° C.; read-out: EC50
Please note: EC50 exactly at 1000 nM is not fulfilled. Only values below 1000 nM get fulfilled.

Use the examples below as a reference point.
molecule	group
CC(C)c1nn(-c2cccc(C(F)(F)F)c2)c2nc(C(=O)O)cc(-c3ccc(N4CCC(C#N)CC4)nc3)c12 [compound 260]	fulfilled
CC(C)c1nn(-c2cccc(C#N)c2)c2nc(C(=O)O)cc(-c3ccc(N4CCOCC4)cc3)c12 [compound 49]	not fulfilled
COCCN(C)c1ccc(-c2cc(C(=O)O)nc3c2c(C(C)C)nn3C2CCCCC2)cn1 [compound 170]	fulfilled

Query :: Consider COCCN(CCOC)c1ccc(-c2cc(C(=O)O)nc3c2c(C(C)C)nn3C2CCCCC2)cn1 [compound 275] . Does its EC50 lie strictly below 1000 nM?
Result :: fulfilled

Query :: Consider Cc1nn(-c2ccc(F)cc2F)c2nc(C(=O)O)cc(-c3ccc(N4CCOCC4)nc3)c12 [compound 104] . Does its EC50 lie strictly below 1000 nM?
Result :: not fulfilled

Query :: Consider COCCN(C)c1cc(C(=O)O)nc2c1c(C(C)C)nn2-c1cccc(C)c1 [compound 209] . Does its EC50 lie strictly below 1000 nM?
Result :: not fulfilled

Query :: Consider Cc1nn(-c2ccccc2)c2nc(C(=O)O)cc(N3CC4(CCCCC4)C3)c12 [compound 309] . Does its EC50 lie strictly below 1000 nM?
Result :: not fulfilled

Query :: Consider COC1CCC(Oc2cc(C(=O)O)nc3c2c(C)nn3-c2ccccc2)CC1 (centres unmarked) [compound 376] . Does its EC50 lie strictly below 1000 nM?
Result :: not fulfilled

###

Target: ΔF508-CFTR (Homo sapiens, UniProt P13569, DEL508-508)
Construct: host or cells: CFBE41o-, doxycycline-inducible
Experiment: CFTR cell surface levels using HRP-tagged ΔF508-CFTR expressing CFBE cells, intrinsic corrector capacity
Format: cell-based
Settings: HRP-tagged ΔF508-CFTR expressing CFBE cells; intrinsic corrector capacity (no co-corrector); 33° C., 20 hours; read-out: EC50
pEC50: −log10 of the molar value.
Quick rule: pEC50 of at least 6 means class 1, below that means class 0.

molecule	assayed target	group
CC1CCN(CCC2CCN(c3cc(C(=O)O)nc4c3c(C3CCC3)nn4-c3ccccc3)CC2)CC1 [compound 687]	ΔF508-CFTR (Homo sapiens, UniProt P13569, DEL508-508)	class 1
O=C(CN1CCN(c2cc(C(=O)O)nc3c2c(C2CCC2)nn3-c2ccccc2)CC1)NC1CCCCC1 [compound 540]	ΔF508-CFTR (Homo sapiens, UniProt P13569, DEL508-508)	class 1
CC(C)c1nn(-c2ccc(F)cc2)c2nc(C(=O)O)cc(N3CCN(C(C)(C)C)CC3)c12 [compound 788]	ΔF508-CFTR (Homo sapiens, UniProt P13569, DEL508-508)	class 0
O=C(O)c1cc(N2C[C@H](O)[C@@H](O)C2)c2c(C3CCC3)nn(-c3ccccc3)c2n1 [compound 446]	ΔF508-CFTR (Homo sapiens, UniProt P13569, DEL508-508)	class 0
O=C(O)c1cc(OC2CCCCCCC2)c2c(C3CCC3)nn(-c3ccccc3)c2n1 [compound 649]	ΔF508-CFTR (Homo sapiens, UniProt P13569, DEL508-508)	class 1

Query :: Entry CC(C)Oc1nn(C2CCCCC2)c2nc(C(=O)O)cc(-c3ccc(N4CCN(C(C)C)CC4)cc3)c12 [compound 863] : is its pEC50 no less than 6?
Result :: class 1

Query :: Entry CC(C1CCN(c2cc(C(=O)O)nc3c2c(C2CCC2)nn3-c2ccccc2)CC1)N1CCOCC1 (stereo not drawn) [compound 683] : is its pEC50 no less than 6?
Result :: class 1

Query :: Entry O=C(O)c1cc(N2CCC(O)(CCO)CC2)c2c(C3CCC3)nn(-c3ccccc3)c2n1 [compound 546] : is its pEC50 no less than 6?
Result :: class 0

Query :: Entry CC(C)c1nn(-c2ccc(F)cc2)c2nc(C(=O)O)cc(N3CCCN(C4CCC4)CC3)c12 [compound 767] : is its pEC50 no less than 6?
Result :: class 0

###

Below, each entry is listed with its recorded % Activation.
Molecular target: ΔF508-CFTR (Homo sapiens, UniProt P13569, DEL508-508)
Construct: host or cells: CFBE41o-, doxycycline-inducible
Assay: CFTR cell surface levels using HRP-tagged ΔF508-CFTR expressing CFBE cells, in the presence of a co-corrector
Assay type: cell-based
Details: HRP-tagged ΔF508-CFTR expressing CFBE cells, in the presence of 3 μM co-corrector
Hi! Could you send only the number? It should be in %, unit omitted.

compound	quantity measured	result number
CN(C)CC1CN(c2cc(C(=O)O)nc3c2c(C2CCC2)nn3-c2ccccc2)CCO1 (stereo not shown) [compound 562]	% Activation	347
CC1CCN(CCC2CCN(c3cc(C(=O)O)nc4c3c(C3CCC3)nn4-c3ccccc3)CC2)CC1 [compound 687]	% Activation	454
CC(C)c1nn(-c2cccc(N3CCOCC3)c2)c2nc(C(=O)O)cc(-c3ccc(N4CCC(C#N)CC4)nc3)c12 [compound 178]	% Activation	591
O=C(O)c1cc(N2CCC3(CC2)CCN(C2CC2)CC3)c2c(C3CCC3)nn(-c3ccc(F)cc3)c2n1 [compound 887]	% Activation	375.13
COC(=O)N1CCN(c2ccc(-c3cc(C(=O)O)nc4c3c(C)nn4-c3ccccc3)cc2)CC1 [compound 70]	% Activation	355.6
CC(C)c1nn(-c2cccc(N3CCCC3)c2)c2nc(C(=O)O)cc(-c3cnc(N4CCC(C#N)CC4)nc3)c12 [compound 259]	% Activation	673.9
NC(=O)c1nn(-c2ccccc2)c2nc(C(=O)O)cc(-c3ccc(N4CCOCC4)cc3)c12 [compound 64]	% Activation	113.3
CC(C)c1nn(-c2cccc(N3CCCC3)c2)c2nc(C(=O)O)cc(-c3ccc(N4CCC(C#N)CC4)nc3)c12 [compound 222]	% Activation	612.47

The compound listed as Cc1nn(-c2ccccc2)c2nc(C(=O)O)cc(-c3ccc(N4CCOC(C)(C)C4)cc3)c12 [compound 119] has a reported % Activation of 413.2

The compound listed as COCC(C)N1CCN(c2cc(C(=O)O)nc3c2c(C(C)C)nn3-c2ccc(F)cc2)CC1 (stereo not shown) [compound 793] has a reported % Activation of 363.5

###

Target: ΔF508-CFTR (Homo sapiens, UniProt P13569, DEL508-508)
Construct: host or cells: CFBE41o-, doxycycline-inducible
Experiment: CFTR cell surface levels using HRP-tagged ΔF508-CFTR expressing CFBE cells, in the presence of a co-corrector
Assay type: cell-based
Settings: HRP-tagged ΔF508-CFTR expressing CFBE cells, in the presence of 3 μM co-corrector; read-out: EC50
pEC50: −log10 of the molar value.
Quick rule: pEC50 of at least 6 means label 1, below that means label 0.

molecule	group
Cc1nn(-c2ccccc2)c2nc(C(=O)O)cc(-c3ccc(N4CCN(C(C)(C)C)CC4)cc3)c12	label 0

Now for a further molecule.
Query :: Entry O=C(O)c1cc(N2CCC(N3CC4CC3CO4)CC2)c2c(C3CCC3)nn(-c3ccc(F)cc3)c2n1 (stereo not drawn) : is its pEC50 no less than 6?
Result :: label 0
